# SYSTEM UNDER TEST: Human IP6K1 (Homo sapiens, UniProt Q92551)
# Construct: GST (N, cleaved yes); made in house; host or cells: C43 E. coli, pGEX-6P-2
# Sequence (Q92551 whole entry): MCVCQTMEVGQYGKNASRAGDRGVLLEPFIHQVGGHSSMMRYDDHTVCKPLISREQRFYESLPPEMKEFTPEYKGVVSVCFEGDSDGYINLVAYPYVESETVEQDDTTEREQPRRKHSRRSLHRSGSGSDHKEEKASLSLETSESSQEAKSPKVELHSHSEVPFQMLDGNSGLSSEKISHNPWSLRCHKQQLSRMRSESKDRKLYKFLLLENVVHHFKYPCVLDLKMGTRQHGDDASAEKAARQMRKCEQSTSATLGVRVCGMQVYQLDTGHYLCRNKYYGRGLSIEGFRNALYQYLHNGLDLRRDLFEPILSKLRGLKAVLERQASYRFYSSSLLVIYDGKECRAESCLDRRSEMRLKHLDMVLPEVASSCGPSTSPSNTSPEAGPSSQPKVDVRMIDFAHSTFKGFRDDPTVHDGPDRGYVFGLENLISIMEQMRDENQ
# METHOD SUMMARY: IP6K1 high-throughput screen of the Sigma LOPAC (ADP-Glo Max, single point);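 also: final compound concentration 10µM in 5% DMSO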
# Format: biochemical
# RUN PARAMETERS: LOPAC single-point screen; Z-score relative to plate average and StDev
Hi there, I'd appreciate the recorded Z-score for every entry that follows.
API note: the answer field is a bare number with no unit suffix.

Request: Specify measured Z-score for Oc1cc(O)cc(/C=C/c2ccc(O)c(O)c2)c1 [Piceatannol] .
Response: -0.7996

Request: Specify measured Z-score for O=NN(CCCl)C(=O)NCCCl [Carmustine] .
Response: -0.6457

Request: Specify measured Z-score for Cn1c(=O)c2[nH]cnc2n(C)c1=O [Theophylline] .
Response: -0.5166

Request: Specify measured Z-score for O=c1[nH]cc(F)c(=O)[nH]1 [5-Fluorouracil] .
Response: -0.5835

Request: Specify measured Z-score for C[C@]12CC[C@@H](O)C[C@@H]1CC[C@@H]1[C@@H]2CC[C@]2(C)[C@@H](O)CC[C@@H]12 [5alpha-Androstane-3alpha,17beta-diol] .
Response: -0.5937

Request: Specify measured Z-score for N#CC(C#N)=C(N)/C(C#N)=C/c1ccc(O)cc1 [Tyrphostin AG 112] .
Response: -0.6063

Request: Specify measured Z-score for CC(C)[C@@]1(NC(=O)[C@@H]2C=C3c4cccc5[nH]cc(c45)C[C@H]3N(C)C2)O[C@@]2(O)[C@@H]3CCCN3C(=O)[C@H](Cc3ccccc3)N2C1=O [Ergocristine] .
Response: -0.7577

Request: Specify measured Z-score for Nc1ncn([C@@H]2O[C@H](CO)[C@@H](O)[C@H]2O)c(=O)n1 [5-azacytidine] .
Response: -0.5333

Request: Specify measured Z-score for CO[C@@]1(NC(=O)CSCC#N)C(=O)N2C(C(=O)O)=C(CSc3nnnn3C)CS[C@@H]21 [Cefmetazole sodium] .
Response: -0.8162

Request: Specify measured Z-score for Cl.NCCC[C@](N)(C(=O)O)C(F)F (racemic) .
Response: -0.6499

Request: Specify measured Z-score for COc1ccccc1N1CCN(CCN2C(=O)CC3(CCCC3)CC2=O)CC1.Cl.Cl [BMY 7378 dihydrochloride] .
Response: -0.9284

Request: Specify measured Z-score for Cl.NC(N)=NCCNS(=O)(=O)c1cccc2cnccc12 [HA-1004 hydrochloride] .
Response: -0.8792

Request: Specify measured Z-score for CN(C(=O)CCCOc1ccc2[nH]c(=O)ccc2c1)C1CCCCC1 [Cilostamide] .
Response: -0.6603

Request: Specify measured Z-score for NCCS(=O)(=O)O [Taurine] .
Response: -0.6611

Request: Specify measured Z-score for CN1C2CCC1CC(OC(c1ccccc1)c1ccc(Cl)cc1)C2.Cl (stereo not drawn) .
Response: -0.8599

---

Hi there, I'd appreciate the recorded Raw Signal for every entry that follows.
# SYSTEM UNDER TEST: Human IP6K1 (Homo sapiens)
# Construct: GST (N, cleaved yes); made in house; host or cells: C43 E. coli, pGEX-6P-2
# METHOD SUMMARY: IP6K1 high-throughput screen of the Sigma LOPAC (ADP-Glo Max, single point);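 also: final compound concentration 10µM in 5% DMSO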
# Type: biochemical
# RUN PARAMETERS: LOPAC single-point screen, ADP-Glo Max raw signal per well
Structures can show the parent of a compound that is named as a salt.
API note: the answer field is a bare number with no unit suffix.

Request: Fill in: Raw Signal on Human IP6K1 (Homo sapiens), entry CCOC(=O)[C@]12CC1/C(=N\O)c1ccccc1O2 (mixture of isomers) [CPCCOEt]
Response: 59801

Request: Fill in: Raw Signal on Human IP6K1 (Homo sapiens), entry Br.CCCN1CCC2c3cc(O)ccc3CCC21 (racemic) [cis-(±)-8-OH-PBZI hydrobromide]
Response: 53901

Request: Fill in: Raw Signal on Human IP6K1 (Homo sapiens), entry Nc1ncnc2c1ncn2[C@@H]1O[C@H](CO)[C@@H](O)[C@H]1O [Adenosine]
Response: 56689

Request: Fill in: Raw Signal on Human IP6K1 (Homo sapiens), entry CC(CCc1ccccc1)NC(C)C(O)c1ccc(O)cc1 (stereo not shown) [Nylidrin hydrochloride]
Response: 56232
